- Tested on: MX2
- Measurement Description: Response of tumor cell lines to erastin (dose-response)
- Type: cell-based
- Condition Details: MX2
Measurement Label: EC50

• CCOc1ccccc1-n1c(C(C)N2CCN(C(=O)COc3ccc(Cl)cc3)CC2)nc2ccccc2c1=O (stereo not shown) = 18 µM

###

- Tested on: BJELR
- Measurement Description: Response of tumor cell lines to erastin (dose-response)
- Type: cell-based, human
- Condition Details: Homo sapiens, BJeLR
- Protocol: Given that oncogenic RAS activates at least four downstream pathways, analysis was performed to identify which downstream effects were necessary for erastin sensitivity. In certain embodiments, the invention provides that erastin inhibits growth and kills genuine tumor cells with RAS mutations. In other embodiments, the invention provides measures of the dose-response of 29 tumor cell lines to erastin, wherein there is at least 50% inhibition of viability in 18 of the cell lines (Table 4). […]
pEC50: −log10 of the molar value.
Measurement Label: pEC50

• CCOc1ccccc1-n1c(C(C)N2CCN(C(=O)COc3ccc(Cl)cc3)CC2)nc2ccccc2c1=O (stereo not shown) = 5.22

###

- Test system: SK-N-MC
- Measurement Description: Response of tumor cell lines to erastin (dose-response)
- Assay type: cell-based
- Condition Details: Homo sapiens, SK-N-MC
pEC50: −log10 of the molar value.
Measurement Label: pEC50

• CCOc1ccccc1-n1c(C(C)N2CCN(C(=O)COc3ccc(Cl)cc3)CC2)nc2ccccc2c1=O (stereo not shown) = 5.00

###

- Tested on: SJSA-1
- Measurement Description: Response of tumor cell lines to erastin (dose-response)
- Type: cell-based
- Condition Details: Homo sapiens, SJSA-1
Measurement Label: EC50 (µM)

• CCOc1ccccc1-n1c(C(C)N2CCN(C(=O)COc3ccc(Cl)cc3)CC2)nc2ccccc2c1=O (stereo not shown) = 12

###

- System: CCRF-CEM parental cells
- Measurement Description: Cell death in taxol/vinblastine resistance panel
- Format: cell-based
- Condition Details: Homo sapiens
Measurement Label: IC50 (nM)

- CC[C@]1(O)C[C@@H]2CN(CCc3c([nH]c4ccccc34)[C@@](C(=O)OC)(c3cc4c(cc3OC)N(C)[C@H]3[C@@](O)(C(=O)OC)[C@H](OC(C)=O)[C@]5(CC)C=CCN6CC[C@]43[C@@H]65)C2)C1 [vinblastine]: 1
- CC(=O)O[C@H]1C(=O)[C@@]2(C)[C@H]([C@H](OC(=O)c3ccccc3)[C@]3(O)C[C@H](OC(=O)[C@H](O)[C@@H](NC(=O)c4ccccc4)c4ccccc4)C(C)=C1C3(C)C)[C@]1(OC(C)=O)CO[C@@H]1C[C@@H]2O [taxol]: 1
- CCOc1ccccc1-n1c(C(C)N2CCN(C(=O)COc3ccc(Cl)cc3)CC2)nc2ccccc2c1=O (stereo not drawn) [erastin]: 11000

###

- Test system: taxol resistant CCRF-CEM derivative cells
- Measurement Description: Cell death in taxol/vinblastine resistance panel
- Type: cell-based
- Condition Details: Homo sapiens
pIC50: −log10 of the molar value.
Measurement Label: pIC50

• CCOc1ccccc1-n1c(C(C)N2CCN(C(=O)COc3ccc(Cl)cc3)CC2)nc2ccccc2c1=O (stereo not drawn) = 5.15
• CC(=O)O[C@H]1C(=O)[C@@]2(C)[C@H]([C@H](OC(=O)c3ccccc3)[C@]3(O)C[C@H](OC(=O)[C@H](O)[C@@H](NC(=O)c4ccccc4)c4ccccc4)C(C)=C1C3(C)C)[C@]1(OC(C)=O)CO[C@@H]1C[C@@H]2O = 6.25
• CC[C@]1(O)C[C@@H]2CN(CCc3c([nH]c4ccccc34)[C@@](C(=O)OC)(c3cc4c(cc3OC)N(C)[C@H]3[C@@](O)(C(=O)OC)[C@H](OC(C)=O)[C@]5(CC)C=CCN6CC[C@]43[C@@H]65)C2)C1 = 7.03

###

- Test system: Hs51.T
- Measurement Description: Response of tumor cell lines to erastin (dose-response)
- Assay type: cell-based
pEC50: −log10 of the molar value.
Measurement Label: pEC50

- CCOc1ccccc1-n1c(C(C)N2CCN(C(=O)COc3ccc(Cl)cc3)CC2)nc2ccccc2c1=O (stereo not shown): 4.92

###

- Tested on: HT1080
- Measurement Description: Response of tumor cell lines to erastin (dose-response)
- Type: cell-based, human
- Condition Details: Homo sapiens, HT-1080; HT1080
Measurement Label: EC50 (nM)

- CCOc1ccccc1-n1c(C(C)N2CCN(C(=O)COc3ccc(Cl)cc3)CC2)nc2ccccc2c1=O (stereo not shown): 2000

###

- Target Entity: VDAC2 (Homo sapiens)
- Construct: hexahistidine (pET-15b, thrombin site) (N)
- Sequence (P45880 whole entry): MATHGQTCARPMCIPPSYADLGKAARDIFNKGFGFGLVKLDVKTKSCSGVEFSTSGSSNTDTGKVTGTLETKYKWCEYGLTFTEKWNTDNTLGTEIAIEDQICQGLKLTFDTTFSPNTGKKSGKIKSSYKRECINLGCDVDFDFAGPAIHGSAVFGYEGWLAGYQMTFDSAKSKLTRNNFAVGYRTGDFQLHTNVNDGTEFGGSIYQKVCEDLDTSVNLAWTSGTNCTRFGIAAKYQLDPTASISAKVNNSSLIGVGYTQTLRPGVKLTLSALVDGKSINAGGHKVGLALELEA
- Measurement Description: VDAC2 binding assay (competition with radiolabelled erastin A9)
- Condition Details: competition with tritium-labeled erastin A9
- Protocol: Given the interactions between erastin and VDAC using affinity-based target identification and VDAC functional assays, the direct binding of erastin to VDACs was investigated. VDAC2 protein was isolated from E. coli using a modified version of the protocol originally described by Koppel et al. Bacterial cultures were grown in LB containing 50 mg/L ampicillin to an OD of 0.6, and induced using […] IPTG overnight. Cultures were harvested by centrifugation at 6000×g for 10 min. […]
pKd: −log10 of the molar value.
Measurement Label: pKd

• CCOc1ccccc1-n1c(C(C)N2CCN(C(=O)COc3ccc(Cl)cc3)CC2)nc2cc(NC(C)=O)ccc2c1=O (stereo not shown) = 6.95

###

- Test system: SK-LMS-1
- Measurement Description: Response of tumor cell lines to erastin (dose-response)
- Format: cell-based
- Condition Details: Homo sapiens, SK-LMS-1
Measurement Label: EC50 (µM)

* CCOc1ccccc1-n1c(C(C)N2CCN(C(=O)COc3ccc(Cl)cc3)CC2)nc2ccccc2c1=O (stereo not shown) | 6
